experimental_protocol: Effect of food on oral absorption of IVa in dogs after Iab or IVa capsules
Type: in vivo, dog
cond: dog, plasma, po, 20 mg/kg, IVa after Iab dry-filled capsules, Fasting
readout_type: Tmax (h)
One number for each entry, in h.

Enquiry: If you can, please state the reported Tmax value of COc1ncc(OC)c2c(C(=O)C(=O)N3CCN(C(=O)c4ccccc4)CC3)c[nH]c12 .
Return: 2

---

experimental_protocol: IV and PO pharmacokinetic studies of prodrug salts (Iab, Ibb, Icb) in the rat, with historical parent data
Type: in vivo, Sprague-Dawley rats
cond: male, Sprague-Dawley, plasma, iv, […], read-out: T1/2 (converted)
Procedure: All blood samples (0.3 mL) were colleted in microtainers containing K2EDTA (Becton Dickinson, Franklin Lakes, N.J.) and placed on chipped ice. After centrifugation, plasma was separated and stored at −20° C. until analysis. […] The pharmacokinetic parameters of Iab and IVa were calculated by Non-Compartmental Analysis using the […]™ software program (version 4.0.2, InnaPhase Co., Philadelphia, Pa.). The Cmax and Tmax values were recorded directly from experimental observations. […]
readout_type: half-life (min)
Answers are plain numbers, in min.

Enquiry: If you can, please state the reported half-life value of O=C(C(=O)N1CCN(C(=O)c2ccccc2)CC1)c1c[nH]c2c(-n3ccnn3)ncc(F)c12 .
Return: 180
